assay remarks: soluble on expression in E. coli; label from the status in PepcDB or PDB records
test readout: soluble on expression in E. coli

query sequence: MGSDKIHHHHHHMKIHQLRALVAVTTAGSIKAAARTMHVTQPAISKAIQELENEFGVPLLERKPWGVVPTPEGDALLGRAQAVVRELERANEDMAHMKGLRDGRLVIGFTPIVAVTGFAEAYAAFRRHWPNVECELRELTFNLLTEQLRNRTLDLAFVAVTGPLSESVDIKAIRTFDTAFVTRENGRFAGATSLDALRDAEWIHADASDSFPTYIRDLHAHAGLPPPRCITRCTSYALFYSLLMTNDAIFSWTRLSLAETVFGQKLTPLPLPMSPPPLQLYRLTPPGLQLTRPASDFLAHVETAFASNQLTGDVQR
value observed: not soluble

query sequence: LVERDSFVNALRESERRYRNIIETASEGILIIDSEVRISYANKKMTDMLGCPLEEVTGRKMCDFVSEESKDIVKLNQKRRRQGINDSYELKLVCKDGSSLWALVNAKSLFDKDGKFMGSISLLTDIT
value observed: not soluble
